Target: human TYK2 catalytic kinase (JH1) domain (Homo sapiens (Human), UniProt P29597)
Sequence (P29597 897-1176): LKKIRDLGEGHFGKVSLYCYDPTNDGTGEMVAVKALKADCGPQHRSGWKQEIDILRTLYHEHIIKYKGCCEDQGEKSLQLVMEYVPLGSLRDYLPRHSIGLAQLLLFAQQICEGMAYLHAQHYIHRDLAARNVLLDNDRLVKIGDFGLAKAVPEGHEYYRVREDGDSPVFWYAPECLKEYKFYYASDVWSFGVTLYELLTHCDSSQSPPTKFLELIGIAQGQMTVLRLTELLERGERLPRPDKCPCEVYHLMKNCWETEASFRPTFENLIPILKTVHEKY
Experiment: ADP-Glo Kinase Assay, recombinant TYK2 catalytic kinase (JH1) domain
Type: biochemical
Settings: recombinant JH1 domain 2 nM, 10 μM ATP, JAK3-974 peptide, mean, read-out: TYK2 biochem IC50 (nM) Mean
quantity_name: IC50 (nM)
Quick note: give the figure in nM, leave out the unit.

{"columns": ["compound", "IC50 / nM"],
 "data": [
  ["O=C([C@@H]1C[C@H]1F)N1C2CCC1CN(c1ccnn3cc(-c4cnn(C(F)(F)F)c4)cc13)C2 [Example 18]", 1.5],
  ["O=C(C1CC1)N1C2CCC1CN(c1ncnn3cc(-c4cnn([C@H]5CCOC5)c4)cc13)C2 [Example 157]", 151],
  ["Cn1cc(-c2cc3c(N4CC5CCC(C4)N5S(=O)(=O)C4CC4)ccnc3[nH]2)cn1 [Example 193]", 10.1]
]}

Continue with the next compound.
Query string: // query IC50 value for entry Cn1cc(-c2cc3c(N4CC5CCC(C4)N5C(=O)[C@@H]4C[C@H]4F)ncnn3c2)cn1 [Example 82]
Result string: 400

###

Molecular target: human JAK3 catalytic kinase (JH1) domain (Homo sapiens (Human))
Sequence (P52333 822-1111): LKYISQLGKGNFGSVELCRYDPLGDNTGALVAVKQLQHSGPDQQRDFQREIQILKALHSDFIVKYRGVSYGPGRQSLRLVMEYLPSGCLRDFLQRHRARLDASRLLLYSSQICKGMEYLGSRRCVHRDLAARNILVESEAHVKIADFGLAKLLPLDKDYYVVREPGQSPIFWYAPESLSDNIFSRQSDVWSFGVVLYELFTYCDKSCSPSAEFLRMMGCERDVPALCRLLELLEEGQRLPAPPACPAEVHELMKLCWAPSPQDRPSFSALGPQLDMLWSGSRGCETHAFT
Assay: ADP-Glo Kinase Assay, recombinant JAK3 catalytic kinase (JH1) domain
Type: biochemical
Conditions: recombinant JH1 domain 0.3 nM, 4 μM ATP, JAK3-974 peptide, mean, read-out: JAK3 biochem IC50 (nM) Mean
Listed here: items and their measured IC50.
Answer with a number only, understood to be in nM.

Query string: Which measured IC50 value corresponds to O=C(C1CC1)N1C2CCC1CN(c1ncnn3cc(-c4cnn(C5CCC5)c4)cc13)C2 [Example 149] ?
Result string: 3010

Query string: What IC50 value was documented for this compound, O=C([C@@H]1C[C@H]1F)N1C2CCC1CN(c1ccnn3cc(-c4ccc(OC(F)F)nc4)cc13)C2 [Example 115] ?
Result string: 961

Query string: Looking for the measured IC50 of Cn1cc(-c2cc3c(N4CC5CCC(C4)N5C(=O)C4CCC4)ncnn3c2)cn1 [Example 67] , can you help?
Result string: 4440

Query string: Request the reported IC50 associated with O=C([C@@H]1C[C@H]1F)N1C2CCC1CN(c1ncnn3cc(-c4ccc(=O)n(C(F)F)c4)cc13)C2 [Example 110]
Result string: 3960

Query string: Item under review: COc1cc(-c2cc3c(N4CC5CCC(C4)N5C(=O)[C@@H]4C[C@H]4F)c(F)cnc3[nH]2)ccn1 [Example 139] . Reported IC50?
Result string: 144

Query string: What does the record list as IC50 for CC(F)(F)C(=O)N1C2CCC1CN(c1ncnn3cc(-c4cnn(C(F)F)c4)cc13)C2 [Example 56] ?
Result string: 1360

###

Target: human TYK2 catalytic kinase (JH1) domain (Homo sapiens (Human))
Assay: ADP-Glo Kinase Assay, recombinant TYK2 catalytic kinase (JH1) domain
Format: biochemical
Settings: recombinant JH1 domain 2 nM, 10 μM ATP, JAK3-974 peptide, mean, read-out: TYK2 biochem IC50 (nM) Mean
Listed compounds paired with reported IC50
Report the value in nM with no unit label.

Example results:
{"columns": ["compound", "IC50 / nM"],
 "data": [
  ["Cn1cc(-c2cc3c(N4CC5CCC(C4)N5S(=O)(=O)C4CC4)ncnc3[nH]2)cn1", 102],
  ["N#C[C@@H]1C[C@H]1C(=O)N1C2CCC1CN(c1ncnn3cc(-c4cnn(C(F)F)c4)cc13)C2 (single isomer, unassigned)", 120],
  ["Cn1cc(-c2cc3c(N4CC5CCC(C4)N5C(=O)[C@H]4C[C@H]4F)ncnn3c2)cn1 (racemic) [Example 60]", 563],
  ["Cn1cc(-c2cc3c(N4CC5CCC(C4)N5C(=O)C4(C)CCC4)ncnn3c2)cn1", 696],
  ["O=C(C1CC1)N1C2CCC1CN(c1ncnn3cc(-c4cnn(C5COC5)c4)cc13)C2", 239],
  ["O=C([C@@H]1C[C@H]1F)N1C2CCC1CN(c1ccnn3cc(-c4ccnc(N5CCC5)c4)cc13)C2", 45]
]}

Now look at this entry.
Query string: Entry COc1cc(-c2cc3c(N4CC5CCC(C4)N5C(=O)[C@@H]4C[C@H]4F)ccnn3c2)ccn1 : reported IC50 = ?
Result string: 1.9

###

Target: human TYK2 catalytic kinase (JH1) domain (Homo sapiens (Human), UniProt P29597)
Test: ADP-Glo Kinase Assay, recombinant TYK2 catalytic kinase (JH1) domain
Assay type: biochemical
Settings: recombinant JH1 domain 2 nM, 10 μM ATP, JAK3-974 peptide, mean, read-out: TYK2 biochem IC50 (nM) Mean
# IC50 per entry

{"columns": ["chem_smiles", "quantity_name", "result"],
 "data": [
  ["O=C([C@@H]1C[C@H]1F)N1C2CCC1CN(c1ccnn3cc(-c4ccc(=O)n(C(F)F)c4)cc13)C2", "IC50", "3.3 nM"],
  ["O=S(=O)(C1CC1)N1C2CCC1CN(c1ncnn3cc(-c4cnn(C(F)F)c4)cc13)C2", "IC50", "615 nM"],
  ["Cn1cc(-c2cc3c(N4CC5CCC(C4)N5S(=O)(=O)C4CC4)ncnn3c2)cn1", "IC50", "643 nM"]
]}

Query string: Find the recorded IC50 belonging to Cn1cc(-c2nc3c(N4CC5CCC(C4)N5C(=O)C4CC4)ccnc3[nH]2)cn1 and report it.
Result string: 6.2 nM

Query string: # get_value(readout='IC50', item= O=C([C@@H]1CC1(F)F)N1C2CCC1CN(c1ncnc3[nH]c(-c4cnn(C(F)F)c4)cc13)C2 )
Result string: 5.7 nM

Query string: So what does the record say about IC50 for O=C(C1CC1)N1C2CCC1CN(c1ncnn3cc(-c4cnn(CC5COC5)c4)cc13)C2 ?
Result string: 107 nM

Query string: Name the recorded IC50 for COc1cc(-c2cc3c(N4CC5CCC(C4)N5C(=O)[C@@H]4C[C@H]4F)ncnc3[nH]2)ccn1 .
Result string: 12.4 nM

Query string: Requested field: IC50. Item: O=C([C@@H]1C[C@H]1F)N1C2CCC1CN(c1ccnc3[nH]c(-c4ccnnc4)nc13)C2
Result string: 39.6 nM

###

Molecular target: human TYK2 catalytic kinase (JH1) domain (Homo sapiens (Human), UniProt P29597)
Assay: ADP-Glo Kinase Assay, recombinant TYK2 catalytic kinase (JH1) domain
Assay type: biochemical
Settings: recombinant JH1 domain 2 nM, 10 μM ATP, JAK3-974 peptide, mean, read-out: TYK2 biochem IC50 (nM) Mean
quantity_name: log10 of IC50 (log10 of the value in nM)
log10 IC50, nM

Illustrative cases are given below, each with its answer.
{"columns": ["compound", "quantity_name", "quantitative_readout"],
 "data": [
  ["COc1cc(-c2cc3c(N4CC5CCC(C4)N5C(=O)[C@@H]4C[C@H]4F)ccnn3c2)ncn1", "log10 of IC50", 1.46],
  ["Cc1ccc(-c2cc3c(N4CC5CCC(C4)N5C(=O)[C@@H]4C[C@H]4F)ccnn3c2)nn1", "log10 of IC50", 0.94],
  ["O=C([C@@H]1CC1(F)F)N1C2CCC1CN(c1ncnn3cc(-c4cnn(C(F)F)c4)cc13)C2", "log10 of IC50", 1.44],
  ["Cc1cc(-c2cc3c(N4CC5CCC(C4)N5C(=O)[C@@H]4C[C@H]4F)ncnn3c2)on1", "log10 of IC50", 1.75],
  ["Cn1cc(-c2cc3nccc(N4CC5CCC(C4)N5C(=O)[C@@H]4C[C@H]4F)n3n2)cn1", "log10 of IC50", 1.91]
]}

Query string: Short answer please: log10 of IC50, human TYK2 catalytic kinase (JH1) domain (Homo sapiens (Human), UniProt P29597), entry O=C(C1CC1)N1C2CCC1CN(c1ncnn3cc(-c4cnn(C(F)F)c4)cc13)C2 [Example 150]
Result string: 2.28

Query string: What is its log10 of IC50 for human TYK2 catalytic kinase (JH1) domain (Homo sapiens (Human), UniProt P29597)? Entry: Cc1cc(-c2cc3c(N4CC5CCC(C4)N5C(=O)[C@@H]4C[C@H]4F)ccnn3c2)on1
Result string: 0.38

###

Target: human JAK1 catalytic kinase (JH1) domain (Homo sapiens (Human))
Sequence (P23458 875-1153): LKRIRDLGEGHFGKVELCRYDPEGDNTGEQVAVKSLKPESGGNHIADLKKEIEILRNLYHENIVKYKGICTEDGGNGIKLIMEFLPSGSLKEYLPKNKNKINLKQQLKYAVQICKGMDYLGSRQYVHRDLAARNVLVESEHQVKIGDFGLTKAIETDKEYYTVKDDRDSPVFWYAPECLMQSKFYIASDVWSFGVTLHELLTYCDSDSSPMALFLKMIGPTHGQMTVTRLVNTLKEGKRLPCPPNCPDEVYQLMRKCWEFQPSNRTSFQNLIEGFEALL
Experiment: ADP-Glo Kinase Assay, recombinant JAK1 catalytic kinase (JH1) domain
Type: biochemical
Settings: recombinant JH1 domain 4 nM, 35 μM ATP, JAK3-342 peptide, mean, read-out: JAK1 biochem IC50 (nM) Mean
Counter-ions that a name gives are not always drawn.
quantity_name: IC50 (nM)
Use nM as the unit, but write only the number.

{"columns": ["compound", "quantitative_readout"],
 "data": [
  ["O=C([C@@H]1C[C@H]1F)N1C2CCC1CN(c1ccnn3cc(-c4ccnc(F)c4)cc13)C2", 25],
  ["O=C(C1CC1)N1C2CCC1CN(c1ncnn3cc(-c4ccncc4)cc13)C2", 1040],
  ["C[C@]1(F)C[C@H](C(=O)N2C3CCC2CN(c2ncnn4cc(-c5cnn(C(F)F)c5)cc24)C3)C1", 3190],
  ["CC(C(=O)N1C2CCC1CN(c1ncnn3cc(-c4cnn(C(F)F)c4)cc13)C2)C(F)(F)F (stereo not shown) [Example 31, trifluoroacetate]", 1480]
]}

Query string: I'm curious: which IC50 was measured for COc1cc(-c2cc3c(N4CC5CCC(C4)N5S(=O)(=O)C4CC4)ncnc3[nH]2)ccn1 tested on human JAK1 catalytic kinase (JH1) domain (Homo sapiens (Human))?
Result string: 1860

Query string: Lookup: IC50 / human JAK1 catalytic kinase (JH1) domain (Homo sapiens (Human)) / N#Cc1cc(-c2nc3c(N4CC5CCC(C4)N5C(=O)[C@@H]4C[C@H]4F)ccnc3[nH]2)ccn1
Result string: 36

Query string: human JAK1 catalytic kinase (JH1) domain (Homo sapiens (Human)) / IC50 / COc1nccc(-c2cc3c(N4CC5CCC(C4)N5C(=O)[C@@H]4C[C@H]4F)ccnc3[nH]2)c1F : value?
Result string: 40
